- Tested on: A. baumannii strain 98-37-09
- procedure_details: AK assay 384-well format, Prestwick library screening
- Type: cell-based, Acinetobacter baumannii
- measurement_conditions: Acinetobacter baumannii, 983709, 3 h; planktonic A. baumannii; 50 μM final drug concentration; positive cutoff 3-fold increase; read-out: AK-based Prestwick library screening result, A. baumannii (fold increase in extracellular AK activity)
Structures can show the parent of a compound that is named as a salt.
Lab note: cut-off is 1. Strictly less in fold induction at 50 µM is Criterion met. Exactly 1 or more is Criterion not met.

The examples below pair each entry with its known result.
Cc1cc(/C=C/c2ccc3cc(N(C)C)ccc3[n+]2C)c(C)n1-c1ccccc1 [Pyrvinium pamoate]	Criterion met
CCCC1C(=O)N2C(N(C)C)=Nc3ccc(C)cc3N2C1=O (stereo not shown)	Criterion met
C[C@@H]1CN([C@H]2CC[C@](C#N)(c3ccc(F)cc3)CC2)CC[C@]1(C(=O)O)c1ccccc1 [Levocabastine hydrochloride]	Criterion not met
CCNCC(O)c1cccc(O)c1 (stereo not shown) [Etilefrine hydrochloride]	Criterion not met
NC(=O)c1cc[n+](CC2=C(C(=O)[O-])N3C(=O)[C@@H](NC(=O)Cc4cccs4)[C@H]3SC2)cc1	Criterion not met
COc1cc(-c2ccc(=O)[nH]n2)ccc1OC(F)F	Criterion met
Cc1[nH]c(=O)c(C#N)cc1-c1ccncc1	Criterion met
CCCNC(C)(C)COC(=O)c1ccccc1 [Meprylcaine hydrochloride]	Criterion met

Query string: Bench note: check whether CO[C@H]1/C=C/O[C@@]2(C)Oc3c(C)c(O)c4c(c3C2=O)C2=NC3(CCN(CC(C)C)CC3)NC2=C(NC(=O)/C(C)=C\C=C\[C@H](C)[C@H](O)[C@@H](C)[C@@H](O)[C@@H](C)[C@H](OC(C)=O)[C@@H]1C)C4=O shows fold induction at 50 µM below 1
Result string: Criterion not met

Query string: Identify whether the compound COC(=O)C1=C(C)NC(C)=C(C(=O)OC(C)C)C1c1cccc2nonc12 (stereo not shown) records fold induction at 50 µM below 1.
Result string: Criterion not met

Query string: Identify whether the compound CC1CCc2c(N3CCC(O)CC3)c(F)cc3c(=O)c(C(=O)O)cn1c23 (stereo not shown) records fold induction at 50 µM below 1.
Result string: Criterion not met

* * *

- Tested on: E. coli
- procedure_details: AK assay 384-well format, Prestwick library screening
- Format: cell-based, Escherichia coli
- measurement_conditions: Escherichia coli, 3 h, planktonic E. coli; 50 μM final drug concentration; 384-well; […]; read-out: AK-based Prestwick Library Screening Results: E. coli (increase in extracellular AK activity)
Structures can show the parent of a compound that is named as a salt.
measured_attribute: fold induction at 50 µM
The response must contain the number and no unit.

Answered examples (4):
CC(C(=O)O)c1cccc(C(=O)c2ccccc2)c1 (stereo not shown)	1.1
CC#C[C@]1(O)CC[C@H]2[C@@H]3CCC4=CC(=O)CCC4=C3[C@@H](c3ccc(N(C)C)cc3)C[C@@]21C	1.3
CN(Cc1cnc2nc(N)nc(N)c2n1)c1ccc(C(=O)N[C@@H](CCC(=O)O)C(=O)O)cc1 [Methotrexate]	1.1
C[N+]1(C)CCC(=C(c2ccccc2)c2ccccc2)CC1 [Diphemanil methylsulfate]	1.2

Query string: Given Cc1ccsc1/C=C/C1=NCCCN1C [Morantel tartrate] , state its recorded fold induction at 50 µM.
Result string: 1.4

Query string: Look up fold induction at 50 µM: Cc1cc(C(C)(C)C)cc(C)c1CC1=NCCN1 [Xylometazoline hydrochloride]
Result string: 1.2

Query string: Entry O=c1[nH]cnc2c1ncn2[C@H]1CC[C@@H](CO)O1 : reported fold induction at 50 µM = ?
Result string: 4.7

Query string: Look at this compound and give its reported fold induction at 50 µM. COC(=O)C1=CCCN(C)C1 [Arecoline hydrobromide]
Result string: 0.4

Query string: Request the reported fold induction at 50 µM associated with CCN1CCCC1CNC(=O)c1cc(S(N)(=O)=O)ccc1OC (stereo not shown) [Sulpiride]
Result string: 1

Query string: Recorded fold induction at 50 µM of COC1=CC(=O)O[C@@H](/C=C/c2ccccc2)C1 , please.
Result string: 1.1

* * *

Recorded fold induction at 50 µM for the following compounds
- System: S. aureus strain USA300-0114
- procedure_details: AK assay 384-well format, Prestwick library screening
- Format: cell-based, Staphylococcus aureus
- measurement_conditions: Staphylococcus aureus, USA300, 3 h; 50 μM final drug concentration; cutoff for positive-scoring molecules 3-fold increase; read-out: AK-based Prestwick Library Screening Results, S. aureus (fold increase in extracellular AK activity)
Counter-ions that a name gives are not always drawn.
Could you keep your reply to the number by itself?

Some entries whose results are on file:
COCC(=O)Nc1c(I)c(C(=O)NCC(O)CO)c(I)c(C(=O)N(C)CC(O)CO)c1I (stereo not drawn) [Iopromide]	1.3
CO[C@@]1(NC(=O)CSCC#N)C(=O)N2C(C(=O)O)=C(CSc3nnnn3C)CS[C@@H]21 [Cefmetazole sodium salt]	5
Clc1ccc(C(Cn2ccnc2)OCc2csc3c(Cl)cccc23)c(Cl)c1 (stereo not drawn) [Sertaconazole nitrate]	0.7
O=c1cc(-c2ccc(O)c(O)c2)oc2cc(O)cc(O)c12	0.2

Please turn your attention to the following entry.
Query string: What does the data say about its fold induction at 50 µM? Entry: O=C(O)c1ccccc1C(=O)Nc1ccc(S(=O)(=O)Nc2nccs2)cc1
Result string: 1.4

* * *

- Tested on: E. faecium
- procedure_details: AK assay 384-well format, Prestwick library screening
- Format: cell-based, Enterococcus faecium
- measurement_conditions: Enterococcus faecium, 3 h; planktonic E. faecium; 50 μM final drug concentration; positive cutoff 3-fold increase; read-out: AK-based Prestwick library screening result, E. faecium (fold increase in extracellular AK activity)
Counter-ions that a name gives are not always drawn.
measured_attribute: fold induction at 50 µM
Give only the figure.

CO/N=C(\C(=O)N[C@@H]1C(=O)N2C(C(=O)O)=C(C[N+]3(C)CCCC3)CS[C@H]12)c1csc(N)n1 [Cefepime hydrochloride]	1
CCOC1O[C@H]([C@@H](COCc2ccccc2)OCc2ccccc2)[C@H](OCc2ccccc2)[C@H]1O (stereo partly drawn) [Tribenoside]	1.1
CCc1c(C)[nH]c2c1C(=O)C(CN1CCOCC1)CC2 (stereo not drawn) [Molindone hydrochloride]	1

Query string: Value lookup for fold induction at 50 µM; key = CCCCN(CCCC)CCC(O)c1cc2c(Cl)cc(Cl)cc2c2cc(C(F)(F)F)ccc12 (stereo not drawn) [Halofantrine hydrochloride]
Result string: 1

Query string: Return reported fold induction at 50 µM; argument: CCCCC[C@H](O)/C=C/[C@H]1[C@H](O)CC(=O)[C@@H]1CCCCCCC(=O)O [Alprostadil]
Result string: 1

Query string: Which value of fold induction at 50 µM has been reported for C[C@@H]1CN([C@H]2CC[C@](C#N)(c3ccc(F)cc3)CC2)CC[C@]1(C(=O)O)c1ccccc1 [Levocabastine hydrochloride] in the records?
Result string: 1

Query string: I would be grateful if you could share the reported fold induction at 50 µM for CCCNC(C)C(=O)Nc1c(C)csc1C(=O)OC (stereo not drawn) [Articaine hydrochloride] .
Result string: 1.2

Query string: Which fold induction at 50 µM is listed for O=C(O)[C@]1(O)C[C@@H](O)[C@@H](O)[C@H](O)C1 [Quinic acid] ?
Result string: 1

Query string: May I ask what fold induction at 50 µM has been recorded for NS(=O)(=O)c1cc2c(cc1Cl)NC(CC1CCCC1)NS2(=O)=O (stereo not drawn) [Cyclopenthiazide] ?
Result string: 0.9

* * *

- System: E. coli
- procedure_details: AK assay 384-well format, Prestwick library screening
- Type: cell-based, Escherichia coli
- measurement_conditions: Escherichia coli, 3 h, planktonic E. coli; 50 μM final drug concentration; […]; read-out: AK-based Prestwick Library Screening Results, E. coli (increase in extracellular AK activity)
measured_attribute: fold induction at 50 µM

Solved cases below.
Nc1ncnc2c1ncn2[C@@H]1O[C@H](COP(=O)(O)O)[C@@H](O)[C@H]1O [Adenosine 5′-monophosphate monohydrate]	0.8
C=C1C/C(=C/C)C(=O)O[C@@H]2CCN3CC=C(COC(=O)[C@]1(C)O)[C@H]23	0.9

In the following, a different compound is considered.
Query string: Dear colleague, I am looking for the recorded fold induction at 50 µM of the following compound: Cc1cccc(C)c1N=C1NCCCS1
Result string: 0.8

* * *

- Test system: E. faecium
- procedure_details: AK assay 384-well format, Prestwick library screening
- Assay type: cell-based, Enterococcus faecium
- measurement_conditions: Enterococcus faecium, 3 h; planktonic E. faecium; 50 μM final drug concentration; 384-well; cutoff for positive-scoring molecules 3-fold increase; read-out: AK-based Prestwick Library Screening Results: E. faecium (increase in extracellular AK activity)
Structures can show the parent of a compound that is named as a salt.
Could you label it t if measured fold induction at 50 µM is 0.9 or higher, and f otherwise?

Here's what some known entries look like.
CN1CCN(CCCN2c3ccccc3Sc3ccc(C(F)(F)F)cc32)CC1 [Trifluoperazine dihydrochloride]	t
CN1CCOC(c2ccccc2)c2ccccc2C1 (stereo not drawn) [Nefopam hydrochloride]	t

Query string: Does fold induction at 50 µM meet or surpass 0.9 for CN(Cc1cnc2nc(N)nc(N)c2n1)c1ccc(C(=O)N[C@@H](CCC(=O)O)C(=O)O)cc1 [Methotrexate] ?
Result string: f

Query string: hey, is fold induction at 50 µM for this one >= 0.9? CCn1cc(C(=O)O)c(=O)c2cc(F)c(N3CCNC(C)C3)c(F)c21 (stereo not drawn) [Lomefloxacin hydrochloride]
Result string: t

Query string: Check this molecule for fold induction at 50 µM at or above 0.9: NC(=O)N1c2ccccc2C=Cc2ccccc21 [Carbamazepine]
Result string: f

Query string: Evaluate CSc1ccc2c(c1)N(CCC1CCCCN1C)c1ccccc1S2 (stereo not drawn) [Thioridazine hydrochloride] : fold induction at 50 µM at minimum 0.9?
Result string: t
